Attribution: PubChem BioAssay AID330

System: P388 leukemia ip, CD2F1 mice, survival T/C
Experiment: NCI In Vivo Anticancer Drug Screen. Data for tumor model P388 Leukemia (intraperitoneal) in CD2F1 (CDF1) mice
Details: endpoint: median survival time; dose: 12.5 mg/kg/injection; schedule: Q01DX009 (ip); vehicle: other; higher = longer survival
Toxic doses and inconclusive results are not listed.
readoutLabel: T/C

molecularString: O=C(O)CNOCc1ccccc1
recordedValue: 95 % of control
--
molecularString: CC(/C=C/c1ccco1)=N\O
recordedValue: 104 % of control
--
molecularString: Nc1ccc2[nH]c3cnccc3c2c1
recordedValue: 103 % of control

Lookup: # lookup: T/C of "CSCc1csc(N)n1"
Found: 102 % of control

Lookup: // query: "COc1ccc(-c2c(C#N)cnc(C)c2C)c(OCc2ccccc2)c1OC"
Found: 106 % of control

Lookup: // query: "O=C(c1ccccc1)N1CC2CCC1CN2C(=O)c1ccccc1"
Found: 105 % of control
